Below, each of the substances is paired with its reported Zeta Count Rate / kcps value.
# Assay protocol: Turbidity, derived count rate of scattered light
# Assay type: physicochemical
# Settings: derived count rate from zeta measurement; mean
# Protocol: 4 µL of 1 mg/mL peptide fibrils solution is added to a 20 µL, 50 µM ThT–solution in PBS. The mixture is incubated for 15 min at RT to allow binding of ThT dye with β–sheet rich structures. […] Fluorescence spectra were recorded on an Infinite® M1000 PRO microplate reader (Tecan) at λem = 488 nm upon excitation at λex = 440 nm with 10 nm bandwidths and multiple reads per well (3×3). […] Furthermore, fluorescence microscopy was conducted by staining 1 µL preformed fibrils (1 mg/mL) with 9 µL ThT (50 µM). […]
The reply should contain only the number, in kcps.

// known answers, use as guide
EIEIQINM [TM95 / (TM75)] | 134
RGDKIKIQINM [MG8a / CN17] | 57.2
EIEIQINMWQ [VH8] | 1264
KIKIQII [TG1 / (KM4)] | 1039
KIKQIINM [JGA2] | 2481

Consider the record given below.
Query: Output measured Zeta Count Rate / kcps for this item: KFKFQFFF [TG12]
Response: 3039

* * *

# Tested on: HIV-1 infection of TZM-bl cells
# Assay protocol: HIV-1 infectivity enhancement assay, β-galactosidase luminescence
# Type: cell-based
# Settings: Feb2021; Log10 of infectivity relative to EF-C
Recorded endpoint: Log10 of Rel to EFC (Feb2021)
Give your answer as a number; write no unit.

// known answers, use as guide
KIKQIINMWQ [JG2] | -0.4604
KFKFQFNMWQ [JG4] | -0.1164
CKFKFQF [BL4] | 0.09083
KIKIKIQINMWQ [VH9] | -0.1048

Consider the record given below.
Query: Output measured Log10 of Rel to EFC (Feb2021) for this item: QCKFKQFFNMWQ [CK10]
Response: -0.606

* * *

# Assay type: physicochemical
# Settings: ThT category; 1 if Rel. ThT >2
Recorded endpoint: ThT Cat.

// known answers, use as guide
KAKAQANMWQ | 0 (ThT-inactive (N-Fold <2))
EIKIQINM | 1 (ThT. Cat is 1, if Rel. ThT >2)
CKFKFQFNMWQ | 1 (ThT. Cat is 1, if Rel. ThT >2)
KIKQIINMWQ | 1 (ThT. Cat is 1, if Rel. ThT >2)
KFKFQFNMW | 0 (ThT-inactive (N-Fold <2))
EIEIQINM | 0 (ThT-inactive (N-Fold <2))

Query: Output measured ThT Cat. for this item: RGEKIKIQINM
Response: 1 (ThT. Cat is 1, if Rel. ThT >2)

Query: Output measured ThT Cat. for this item: QCKFKQFF
Response: 1 (ThT. Cat is 1, if Rel. ThT >2)

Query: Output measured ThT Cat. for this item: QCKIKQII
Response: 1 (ThT. Cat is 1, if Rel. ThT >2)

Query: Output measured ThT Cat. for this item: FKFDKFKFDK
Response: 0 (ThT-inactive (N-Fold <2))

Query: Output measured ThT Cat. for this item: KIKIQIW
Response: 1 (ThT. Cat is 1, if Rel. ThT >2)

Query: Output measured ThT Cat. for this item: KIKIQINMWQ
Response: 1 (ThT. Cat is 1, if Rel. ThT >2)

Query: Output measured ThT Cat. for this item: HGDKCHGDKC
Response: 0 (ThT-inactive (N-Fold <2))

Query: Output measured ThT Cat. for this item: KVKGVGK
Response: 0 (ThT-inactive (N-Fold <2))

Query: Output measured ThT Cat. for this item: CKAKAQANM
Response: 0 (ThT-inactive (N-Fold <2))

Query: Output measured ThT Cat. for this item: HGEHGEHGE
Response: 0 (ThT-inactive (N-Fold <2))

Query: Output measured ThT Cat. for this item: KFKQFFINMWQ
Response: 0 (ThT-inactive (N-Fold <2))

Query: Output measured ThT Cat. for this item: CKFKQFF
Response: 0 (ThT-inactive (N-Fold <2))

Query: Output measured ThT Cat. for this item: NMWQKVGTPL
Response: 1 (ThT. Cat is 1, if Rel. ThT >2)

Query: Output measured ThT Cat. for this item: QCKIKIQINM
Response: 1 (ThT. Cat is 1, if Rel. ThT >2)

Query: Output measured ThT Cat. for this item: RPRGLLLGNLR
Response: 0 (ThT-inactive (N-Fold <2))

Query: Output measured ThT Cat. for this item: QCKFKQFFNMWQ
Response: 1 (ThT. Cat is 1, if Rel. ThT >2)

Query: Output measured ThT Cat. for this item: QCKIKIQI
Response: 1 (ThT. Cat is 1, if Rel. ThT >2)

Query: Output measured ThT Cat. for this item: PPFHPPPFHP
Response: 0 (ThT-inactive (N-Fold <2))

Query: Output measured ThT Cat. for this item: SISISRRI
Response: 0 (ThT-inactive (N-Fold <2))

Query: Output measured ThT Cat. for this item: NMWQKIKQII
Response: 0 (ThT-inactive (N-Fold <2))

Query: Output measured ThT Cat. for this item: CKFKQFFNMWQ
Response: 1 (ThT. Cat is 1, if Rel. ThT >2)

Query: Output measured ThT Cat. for this item: QCKIKIQINMWQ
Response: 1 (ThT. Cat is 1, if Rel. ThT >2)

* * *

# System: HIV-1 infection of TZM-bl cells
# Assay protocol: HIV-1 infectivity enhancement assay, β-galactosidase luminescence
# Assay type: cell-based
# Settings: HIV-1 infection of TZM-bl cells, infection rate relative to EF-C, log10; source data of Figure 2C
Recorded endpoint: Log10 Infection Rel EF-C
Give your answer as a number; write no unit.

NMWQKFKFQF | -0.5672

Consider the record given below.
Query: Given HHHHKAKAKAKAWWWW , report its Log10 Infection Rel EF-C on HIV-1 infection of TZM-bl cells.
Response: -1.048

* * *

Below, each of the substances is paired with its reported Fibril value.
# Type: physicochemical
# Set-up: key: 1 = fibrils present; 0 non-fibrillar structures
# Settings: TEM; 1 = fibrils present, 0 = non-fibrillar structures
Give your answer as a number; write no unit.

Query: Output measured Fibril for this item: KIKIQI
Response: 0

Query: Output measured Fibril for this item: KAKAQANMWQ
Response: 0

Query: Output measured Fibril for this item: KVKVQVV
Response: 0

Query: Output measured Fibril for this item: QCKFKFQFNM
Response: 1

Query: Output measured Fibril for this item: RGDKIRGDKI
Response: 0

* * *

# Assay protocol: Zeta-potential measurement
# Type: physicochemical
# Settings: mean, Std Zeta in next column
Below, each of the substances is paired with its reported Zeta Pot. / mV value.
The reply should consist of the numeric value with the unit placed after it.

// known answers, use as guide
MKFKFQF [DF5 / CK16] | -3.133 mV
CKFKFQFNMWQ [BL2] | 17.03 mV
QCKIKIQINMWQ [EF-C opt] | 11.73 mV
CKWKWQW [KB4] | 14.7 mV
CKIKQII [MG4a] | -3.83 mV

Query: Output measured Zeta Pot. / mV for this item: CKFKQFFNMWQ [CK13]
Response: 8.563 mV

Query: Output measured Zeta Pot. / mV for this item: KIKIQINMW [JGB1 /TM85]
Response: 19.7 mV

* * *

# Test system: TZM-bl cells
# Type: cell-based
# Settings: CellTiter-Glo, peptide 1.3 µM, mean of n = 3 replicates
Recorded endpoint: viability 1.3 µM
Give your answer as a number; write no unit.

// known answers, use as guide
CKIKIQIRGD [psis21] | 107.1
KIKQIINM [JGA2] | 117.7
HHHHKIKIKIKIYYYY [TM6] | 103.8

Query: Output measured viability 1.3 µM for this item: CKIKQIINM [BL1]
Response: 104.1

Query: Output measured viability 1.3 µM for this item: KIKIKIKIYYYY [JR7]
Response: 92.93

Query: Output measured viability 1.3 µM for this item: CEFEFQFNMWQ [TM140]
Response: 116.7

Query: Output measured viability 1.3 µM for this item: RGDKIKIQINMWQ [MG9a]
Response: 105.9

Query: Output measured viability 1.3 µM for this item: KFKFQF [JJA6]
Response: 100.3

Query: Output measured viability 1.3 µM for this item: CKIKQIINMWQ [MG5a / CK17]
Response: 105.1

* * *

# Assay protocol: β-sheet content by ATR-FT-IR
# Assay type: physicochemical
# Settings: Fig. S7 panel A; β-sheet content by ATR-FT-IR
Below, each of the substances is paired with its reported b -sheet / % value.
The reply should contain only the number, in %.

FDPFDPFDP | 48.89

Consider the record given below.
Query: Output measured b -sheet / % for this item: HGEHGE
Response: 9.5428
